Attribution: patent US12221481B2

- assayComment: Thermal stability of CD58 variants by differential scanning calorimetry (DSC)
- Type: physicochemical
- experimentalConditions: HBS, 0.5 mg/mL
readoutLabel: Tmonset by Differential Scanning Calorimetry (DSC) (°C)
Value expressed in °C; do not type the unit.

Look at this molecule and give its reported Tmonset by Differential Scanning Calorimetry (DSC). IgV V54C_G88C: CD58 IgV domain with V54 and G88 replaced by cysteines (stabilizing disulfide) (protein) SQQIYGVVYGNVTFHVPSNVPLKECLWKKQKDKVAELENSEFRAFSSFKNRVYLDTVSCSLTIYNLTSSDEDEYEMESPNITDTMKFFLYVLESGGGGSHHHHHHHH
66.7

Similarly, IgV V45C_M105C: CD58 IgV domain with V45 and M105 replaced by cysteines (stabilizing disulfide) (protein) SQQIYGVVYGNVTFHCPSNVPLKEVLWKKQKDKVAELENSEFRAFSSFKNRVYLDTVSGSLTIYNLTSSDEDEYECESPNITDTMKFFLYVLESGGGGSHHHHHHHH ?
43.9

Similarly, IgV V45C_M114C: CD58 IgV domain with V45 and M114 replaced by cysteines (stabilizing disulfide) (protein) SQQIYGVVYGNVTFHCPSNVPLKEVLWKKQKDKVAELENSEFRAFSSFKNRVYLDTVSGSLTIYNLTSSDEDEYEMESPNITDTCKFFLYVLESGGGGSHHHHHHHH ?
49.6

Similarly, CD58 Full ECD: recombinant human CD58 full extracellular domain (protein) SQQIYGVVYGNVTFHVPSNVPLKEVLWKKQKDKVAELENSEFRAFSSFKNRVYLDTVSGSLTIYNLTSSDEDEYEMESPNITDTMKFFLYVLESLPSPTLTCALTNGSIEVQCMIPEHYNSHRGLIMYSWDCPMEQCKRNSTSIYFKMENDLPQKIQCTLSNPLFNTTSSIILTTCIPSSGHSRHRGGGGSHHHHHHHH ?
48.8

Similarly, CD58_IgV: recombinant human CD58 IgV domain (domain 1), no added disulfide (protein) SQQIYGVVYGNVTFHVPSNVPLKEVLWKKQKDKVAELENSEFRAFSSFKNRVYLDTVSGSLTIYNLTSSDEDEYEMESPNITDTMKFFLYVLESGGGGSHHHHHHHH ?
46.3
